This section presents molecules with their documented pKd values.
Target: UniProtKB P18177
Sequence (P18177 whole entry, the tested form may be a part): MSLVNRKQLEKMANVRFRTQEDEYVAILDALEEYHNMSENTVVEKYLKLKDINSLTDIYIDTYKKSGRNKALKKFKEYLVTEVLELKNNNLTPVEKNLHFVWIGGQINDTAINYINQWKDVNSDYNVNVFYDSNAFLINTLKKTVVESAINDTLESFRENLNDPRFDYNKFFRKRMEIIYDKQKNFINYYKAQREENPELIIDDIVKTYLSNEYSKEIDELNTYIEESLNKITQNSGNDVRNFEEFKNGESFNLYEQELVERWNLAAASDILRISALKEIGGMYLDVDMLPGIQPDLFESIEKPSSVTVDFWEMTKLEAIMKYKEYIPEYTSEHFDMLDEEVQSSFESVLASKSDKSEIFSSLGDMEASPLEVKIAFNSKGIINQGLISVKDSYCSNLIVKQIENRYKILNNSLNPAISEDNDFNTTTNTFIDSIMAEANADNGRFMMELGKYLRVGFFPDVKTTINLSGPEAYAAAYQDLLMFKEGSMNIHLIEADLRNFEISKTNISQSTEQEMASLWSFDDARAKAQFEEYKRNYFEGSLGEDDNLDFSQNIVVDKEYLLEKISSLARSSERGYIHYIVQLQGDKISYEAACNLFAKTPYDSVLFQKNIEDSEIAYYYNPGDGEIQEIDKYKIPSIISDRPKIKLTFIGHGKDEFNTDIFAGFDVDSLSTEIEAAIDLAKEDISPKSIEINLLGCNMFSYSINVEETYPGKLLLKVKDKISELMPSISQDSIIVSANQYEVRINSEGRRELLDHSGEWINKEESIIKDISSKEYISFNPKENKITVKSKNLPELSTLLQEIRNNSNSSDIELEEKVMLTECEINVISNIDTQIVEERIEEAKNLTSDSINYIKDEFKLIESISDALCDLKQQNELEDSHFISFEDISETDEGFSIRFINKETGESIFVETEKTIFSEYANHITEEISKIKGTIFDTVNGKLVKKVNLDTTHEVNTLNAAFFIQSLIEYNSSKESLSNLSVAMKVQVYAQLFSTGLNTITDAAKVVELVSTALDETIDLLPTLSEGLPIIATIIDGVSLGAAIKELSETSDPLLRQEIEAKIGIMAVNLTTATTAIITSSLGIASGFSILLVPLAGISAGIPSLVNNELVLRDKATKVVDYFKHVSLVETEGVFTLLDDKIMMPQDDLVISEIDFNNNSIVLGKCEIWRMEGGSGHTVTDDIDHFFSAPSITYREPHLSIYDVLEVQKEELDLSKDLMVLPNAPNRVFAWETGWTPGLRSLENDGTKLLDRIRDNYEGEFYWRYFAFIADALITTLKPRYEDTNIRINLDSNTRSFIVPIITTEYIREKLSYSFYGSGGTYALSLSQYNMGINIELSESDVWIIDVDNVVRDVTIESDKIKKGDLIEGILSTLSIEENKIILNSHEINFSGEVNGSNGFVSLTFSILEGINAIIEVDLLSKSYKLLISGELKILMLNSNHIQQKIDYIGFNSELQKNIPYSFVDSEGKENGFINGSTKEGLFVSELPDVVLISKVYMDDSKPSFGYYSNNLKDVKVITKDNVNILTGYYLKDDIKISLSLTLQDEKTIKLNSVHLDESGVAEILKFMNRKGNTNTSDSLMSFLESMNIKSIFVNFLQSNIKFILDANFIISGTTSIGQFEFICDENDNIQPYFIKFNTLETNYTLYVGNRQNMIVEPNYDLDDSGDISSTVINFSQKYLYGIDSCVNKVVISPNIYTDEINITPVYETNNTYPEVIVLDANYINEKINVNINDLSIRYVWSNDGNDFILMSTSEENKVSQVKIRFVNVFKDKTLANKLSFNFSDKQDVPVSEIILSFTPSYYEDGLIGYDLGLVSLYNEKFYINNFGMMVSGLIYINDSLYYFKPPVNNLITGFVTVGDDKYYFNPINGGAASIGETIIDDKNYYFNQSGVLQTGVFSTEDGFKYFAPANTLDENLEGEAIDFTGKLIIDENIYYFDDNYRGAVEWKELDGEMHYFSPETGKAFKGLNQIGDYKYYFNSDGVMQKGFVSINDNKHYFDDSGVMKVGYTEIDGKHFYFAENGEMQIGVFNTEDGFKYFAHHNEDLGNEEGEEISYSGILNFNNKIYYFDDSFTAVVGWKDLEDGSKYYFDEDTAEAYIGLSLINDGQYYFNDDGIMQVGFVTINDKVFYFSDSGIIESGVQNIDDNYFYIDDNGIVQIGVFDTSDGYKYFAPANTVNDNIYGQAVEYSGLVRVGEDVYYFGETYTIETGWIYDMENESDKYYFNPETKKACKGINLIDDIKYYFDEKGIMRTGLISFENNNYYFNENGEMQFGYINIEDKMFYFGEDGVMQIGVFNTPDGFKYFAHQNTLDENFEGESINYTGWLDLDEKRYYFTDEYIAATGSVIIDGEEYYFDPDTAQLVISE
Test: Binding affinity to His6 tagged Clostridioides difficile Toxin B truncated cysteine protease domain (543 to 799 residues) extracted from Escherichia coli BL21 (DE3) assessed as dissociation constant by ITC method
Hey, just a heads up that pKd is the negative log base 10 of the concentration in molar.

Would you please look over these solved cases?
Identify the reported pKd for the following entry. `O=P(O)(O)O[C@H]1[C@H](OP(=O)(O)O)[C@@H](OP(=O)(O)O)[C@H](OP(=O)(O)O)[C@@H](OP(=O)(O)O)[C@H]1OP(=O)(O)O`
5.87

Identify the reported pKd for the following entry. `O=S(=O)(O)O[C@H]1[C@H](OP(O)(O)=S)[C@@H](OS(=O)(=O)O)[C@H](OP(O)(O)=S)[C@@H](OS(=O)(=O)O)[C@H]1OP(O)(O)=S`
5.65

Identify the reported pKd for the following entry. `O=S(=O)(O)O[C@H]1[C@H](OP(O)(O)=S)[C@H](OS(=O)(=O)O)[C@H](OP(O)(O)=S)[C@@H](OS(=O)(=O)O)[C@@H]1OP(O)(O)=S`
6.18

Others:
Identify the reported pKd for the following entry. `O=S(=O)(O)O[C@@H]1[C@@H](OP(O)(O)=S)[C@H](OS(=O)(=O)O)[C@H](OS(=O)(=O)O)[C@H](OS(=O)(=O)O)[C@H]1OP(O)(O)=S`
5.66
